Target: T1, Human OSM (human, UniProt P13725 26-221)
T1 construct: Recombinant human OSM; also called hOSM; human Oncostatin M
T1 sequence: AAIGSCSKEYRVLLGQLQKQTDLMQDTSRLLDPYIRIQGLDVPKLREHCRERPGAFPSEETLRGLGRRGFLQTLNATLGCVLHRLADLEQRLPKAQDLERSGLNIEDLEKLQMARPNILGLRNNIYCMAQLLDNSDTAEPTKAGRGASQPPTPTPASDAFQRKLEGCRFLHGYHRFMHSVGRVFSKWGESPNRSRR
Assay: BIAcore kinetics, purified antibody
Please respond with reported kon for every item in the list.
Provide the reading as a plain figure in M⁻¹ s⁻¹.

Exercise: Specify reported kon for the binder shown: Humanised 10G8 H1L1 (antibody, V domains shown) VH: EMQLVESGGGLVQPGGSLRLSCAASGFTFSNYAMSWVRQAPGKGLEWVATISDGGSFTYYLDNVRGRFTISRDNAKNSLYLQMNSLRAEDTAVYYCARDVGHTTFWYFDVWGRGTLVTVSS VL: DIVMTQSPDSLAVSLGERATINCRASKSVSAAGYNFMHWYQQKPGQPPKVLIYYASNLESGVPDRFSGSGSGTDFTLTISSLQAEDVAVYYCLHSREFPFTFGGGTKVEIK
Solution: 375000

Exercise: Specify reported kon for the binder shown: Humanised 10G8 H0L1 (antibody, human IgG1, kappa, V domains shown, IgG1 kappa; mature H0 heavy chain and mature L1 light chain; also called Humanised 10G8 H0L1 parent) VH: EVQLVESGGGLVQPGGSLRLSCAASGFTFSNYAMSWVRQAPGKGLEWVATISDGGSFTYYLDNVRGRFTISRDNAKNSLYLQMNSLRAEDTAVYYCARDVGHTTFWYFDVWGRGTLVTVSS VL: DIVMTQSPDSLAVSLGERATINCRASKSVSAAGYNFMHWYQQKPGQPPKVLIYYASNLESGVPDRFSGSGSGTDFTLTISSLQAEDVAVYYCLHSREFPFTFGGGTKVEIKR
Solution: 387000
